system: Pichia kudriavzevii; assay: Antifungal activity against Pichia kudriavzevii 4946 assessed as reduction in fungal growth incubated for 72 hrs by broth microdilution method; assay type: functional
Give measured MIC for each item. Keep answers brief.
Expressed in mg/L, but write only the number.

Measured MIC, "COC(=O)CCNC(=O)c1ccc(-n2nc(-c3ccccc3O)nc2-c2ccccc2O)cc1" : 4

Measured MIC, CN1CCCC(CNC(=O)c2ccc(-n3nc(-c4ccccc4O)nc3-c3ccccc3O)cc2)C1 (configuration not stated) : 16

Measured MIC, "COCCNC(=O)c1ccc(-n2nc(-c3ccccc3O)nc2-c2ccccc2O)cc1" : 1

Measured MIC, "O=C(NCCNc1ncccn1)c1ccc(-n2nc(-c3ccccc3O)nc2-c2ccccc2O)cc1" : 16

Measured MIC, O=C(NC1CCS(=O)(=O)C1)c1ccc(-n2nc(-c3ccccc3O)nc2-c2ccccc2O)cc1 (configuration not stated) : 0.25

Measured MIC, "O=C(NCCN1CCOCC1)c1ccc(-n2nc(-c3ccccc3O)nc2-c2ccccc2O)cc1" : 8

Measured MIC, "CC(C)(O)CCNC(=O)c1ccc(-n2nc(-c3ccccc3O)nc2-c2ccccc2O)cc1" : 4
